molecular target: PI3Kβ (Mus musculus, UniProt Q8BTI9); construct: endogenous in cells; experiment: PI3K isoforms cellular selectivity assay (AKT phosphorylation, NIH-3T3, LPA); conditions: NIH-3T3 cells, LPA stimulation
Sequence (Q8BTI9 whole entry, canonical isoform): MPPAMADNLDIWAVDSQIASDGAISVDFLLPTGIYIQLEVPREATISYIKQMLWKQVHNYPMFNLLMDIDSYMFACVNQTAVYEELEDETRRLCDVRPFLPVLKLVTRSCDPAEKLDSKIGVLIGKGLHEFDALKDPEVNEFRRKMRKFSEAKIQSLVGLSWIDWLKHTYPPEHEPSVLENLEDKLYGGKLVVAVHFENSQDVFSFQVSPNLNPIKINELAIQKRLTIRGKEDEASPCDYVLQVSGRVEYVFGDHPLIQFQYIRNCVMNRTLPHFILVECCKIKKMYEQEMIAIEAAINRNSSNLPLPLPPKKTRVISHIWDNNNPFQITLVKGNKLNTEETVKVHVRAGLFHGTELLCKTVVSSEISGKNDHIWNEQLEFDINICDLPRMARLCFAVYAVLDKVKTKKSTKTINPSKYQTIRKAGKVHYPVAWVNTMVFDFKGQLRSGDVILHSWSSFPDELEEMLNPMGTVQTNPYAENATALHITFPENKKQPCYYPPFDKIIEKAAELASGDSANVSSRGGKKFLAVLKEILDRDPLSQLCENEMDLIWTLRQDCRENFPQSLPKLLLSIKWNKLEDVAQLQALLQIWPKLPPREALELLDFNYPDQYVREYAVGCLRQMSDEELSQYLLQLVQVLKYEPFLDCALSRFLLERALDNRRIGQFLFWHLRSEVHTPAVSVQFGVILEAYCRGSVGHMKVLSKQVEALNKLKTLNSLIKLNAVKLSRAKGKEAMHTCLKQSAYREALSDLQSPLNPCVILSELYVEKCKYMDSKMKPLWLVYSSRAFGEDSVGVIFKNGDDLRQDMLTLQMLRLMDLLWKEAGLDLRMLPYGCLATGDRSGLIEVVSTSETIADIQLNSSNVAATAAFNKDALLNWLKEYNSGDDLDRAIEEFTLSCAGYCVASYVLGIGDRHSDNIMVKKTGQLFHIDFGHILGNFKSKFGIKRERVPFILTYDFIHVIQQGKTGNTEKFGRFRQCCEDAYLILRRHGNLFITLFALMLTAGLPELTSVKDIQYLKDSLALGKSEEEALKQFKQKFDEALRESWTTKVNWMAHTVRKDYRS
Sequence (P26450 whole entry partner, canonical isoform): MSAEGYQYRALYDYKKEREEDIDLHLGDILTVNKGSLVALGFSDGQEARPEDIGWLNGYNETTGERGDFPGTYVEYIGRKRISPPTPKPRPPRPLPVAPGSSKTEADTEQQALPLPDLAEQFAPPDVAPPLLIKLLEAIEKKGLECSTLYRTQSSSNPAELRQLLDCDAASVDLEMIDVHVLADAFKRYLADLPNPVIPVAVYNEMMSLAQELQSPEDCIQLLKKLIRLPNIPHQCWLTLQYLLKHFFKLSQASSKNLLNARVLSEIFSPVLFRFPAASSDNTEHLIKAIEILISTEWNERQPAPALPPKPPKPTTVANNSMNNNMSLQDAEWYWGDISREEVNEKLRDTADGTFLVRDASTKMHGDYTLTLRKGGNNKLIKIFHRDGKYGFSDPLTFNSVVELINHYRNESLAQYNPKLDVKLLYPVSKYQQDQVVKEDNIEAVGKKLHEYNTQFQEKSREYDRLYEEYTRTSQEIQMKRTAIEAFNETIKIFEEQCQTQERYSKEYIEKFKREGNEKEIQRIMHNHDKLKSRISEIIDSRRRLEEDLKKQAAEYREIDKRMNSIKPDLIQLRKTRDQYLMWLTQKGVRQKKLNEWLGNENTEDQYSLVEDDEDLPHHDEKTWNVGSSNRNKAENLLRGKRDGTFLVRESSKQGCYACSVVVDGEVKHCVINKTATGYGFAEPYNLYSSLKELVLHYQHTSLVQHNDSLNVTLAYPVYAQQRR
pEC50: −log10 of the molar value.
value.type: pEC50

Request: Can you look up the measured pEC50 of "Cc1nc(NC(=O)CN)sc1-c1cnc(Cl)c(NS(=O)(=O)c2ccc(C(C)(C)C)cc2)c1" for me?
Response: < 5.52

---

molecular target: PI3Kγ (Mus musculus, UniProt Q9JHG7); construct: endogenous in cells; assay: PI3K isoforms cellular selectivity assay (AKT phosphorylation, RAW264.7, C5a); conditions: RAW264.7 cells, C5a stimulation
Sequence (Q9JHG7 whole entry, canonical isoform): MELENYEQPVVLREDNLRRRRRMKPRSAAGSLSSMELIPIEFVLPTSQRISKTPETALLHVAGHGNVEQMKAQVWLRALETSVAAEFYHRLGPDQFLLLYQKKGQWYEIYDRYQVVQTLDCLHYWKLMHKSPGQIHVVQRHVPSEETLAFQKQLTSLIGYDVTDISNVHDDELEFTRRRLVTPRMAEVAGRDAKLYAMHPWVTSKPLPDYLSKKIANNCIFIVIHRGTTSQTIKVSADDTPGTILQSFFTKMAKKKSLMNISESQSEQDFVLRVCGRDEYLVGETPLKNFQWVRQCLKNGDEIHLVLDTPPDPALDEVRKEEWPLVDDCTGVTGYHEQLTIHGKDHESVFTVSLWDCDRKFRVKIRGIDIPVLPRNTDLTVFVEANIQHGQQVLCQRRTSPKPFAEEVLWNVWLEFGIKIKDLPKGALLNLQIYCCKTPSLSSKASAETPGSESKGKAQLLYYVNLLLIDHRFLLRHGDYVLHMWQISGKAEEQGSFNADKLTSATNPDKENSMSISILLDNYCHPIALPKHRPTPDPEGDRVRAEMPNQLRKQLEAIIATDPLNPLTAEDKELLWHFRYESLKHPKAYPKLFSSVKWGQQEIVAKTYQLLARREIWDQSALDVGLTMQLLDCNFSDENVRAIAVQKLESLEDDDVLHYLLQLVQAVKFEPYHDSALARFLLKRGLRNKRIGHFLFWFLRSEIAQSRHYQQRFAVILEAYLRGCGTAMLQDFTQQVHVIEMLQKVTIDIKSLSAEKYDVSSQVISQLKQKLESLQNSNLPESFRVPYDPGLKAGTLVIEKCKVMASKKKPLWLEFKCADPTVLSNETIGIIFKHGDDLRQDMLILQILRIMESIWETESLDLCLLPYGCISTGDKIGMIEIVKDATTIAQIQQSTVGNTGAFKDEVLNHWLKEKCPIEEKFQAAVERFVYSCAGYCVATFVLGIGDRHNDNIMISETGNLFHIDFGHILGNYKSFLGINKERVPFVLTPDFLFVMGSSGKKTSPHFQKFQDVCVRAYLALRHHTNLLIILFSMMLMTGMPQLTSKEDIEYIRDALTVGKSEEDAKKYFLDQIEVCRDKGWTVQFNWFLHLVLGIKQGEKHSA
value.type: EC50 (nM)
Use nM as the unit, but write only the number.

Request: Hello, I am looking for reported EC50 with PI3Kγ (Mus musculus, UniProt Q9JHG7) for "Cc1nc(NC(=O)CN)sc1-c1cnc(Cl)c(NS(=O)(=O)c2ccc(C(C)(C)C)cc2)c1" . Could you help?
Response: 186

Cited source for all entries: paper PMC5288202
